Data origin, for the record: ChEMBL document CHEMBL5512633

Assay: Cytotoxicity against human THP-1 cells incubated for 72 hrs by DAPI staining based analysis
Format: toxicity, cell-based
Exercise: for every item that follows, state its recorded log10(CC50 at 72 h).
The common logarithm of CC50 at 72 h in µM is what is listed.

Field: example entries. Status: answers known.
INSERT INTO measurements (compound, recorded_result) VALUES
  ('COc1cc2c(N3CCCCC3)nc(NCc3ccc(F)cc3)nc2cc1OC1CCCC1', 1.67),
  ('COc1cc2c(N3CCCCC3)nc(NCc3ccc(C(F)(F)F)cc3)nc2cc1O', 1.43),
  ('COc1ccc(CNc2nc(N3CCCCC3)c3cc(OC)c(OCc4ccccc4)cc3n2)cc1', 1.29),
  ('COc1cc2c(N3CCCCC3)nc(NC(=O)c3ccc(C(F)(F)F)cc3)nc2cc1OC1CCCC1', 1.90),
  ('COc1cc2c(N3CCCCC3)nc(NCc3ccc(Br)cc3)nc2cc1OC1CCCC1', 1.18);

For every listed record, write down its log10(CC50 at 72 h).
1. COc1cc2c(N3CCCCC3)nc(NCc3ccc(Cl)cc3)nc2cc1OC1CCCC1
2. COc1cc2c(N3CCCCC3)nc(NC(=O)c3ccc(F)cc3)nc2cc1OC1CCCC1
3. COc1cc2c(N3CCCCC3)nc(N(C)C)nc2cc1O

Result:
1. 1.09
2. 1.95
3. 1.87

Could you tell me log10(CC50 at 72 h) for each of these compounds? They are listed below.
1. COc1cc2c(N3CCCCC3)nc(NCc3ccc([N+](=O)[O-])cc3)nc2cc1OC1CCCC1
2. COc1cc2c(N3CCCCC3)nc(NCc3ccc(F)cc3)nc2cc1OC1CCNC1 (stereo not given)
3. COc1cc2c(N(C)C)nc(NCc3ccc(F)cc3)nc2cc1OC1CCCC1
4. COc1cc2c(N3CCCCC3)nc(NCc3ccc(F)cc3)nc2cc1O
5. COc1cc2c(N3CCCCC3)nc(NCc3ccc(C)cc3)nc2cc1OC1CCCC1
6. COc1cc2c(N3CCCCC3)nc(NCc3ccc(C(C)(C)C)cc3)nc2cc1OC1CCCC1
7. COc1cc2nc(NCc3ccc(F)cc3)nc(N3CCCCC3)c2cc1OC
8. CCCCCCCCCCCCCCCCOP(=O)([O-])OCC[N+](C)(C)C

Result:
[0.75, 0.80, 0.58, 1.45, 0.54, 0.42, 1.05, 1.40]

State recorded log10(CC50 at 72 h) for all listed compounds.
1. CNc1nc(NCc2ccc(F)cc2)nc2cc(OC3CCCC3)c(OC)cc12
2. COc1cc2c(N3CCCCC3)nc(N)nc2cc1O

Result:
[0.36, 1.35]
